src = the supplement of paper PMC11208160

test: recombinant barcode read abundance after kanamycin selection (control-corrected) (log10(CPM+1)); higher = more efficient recombination; sequences stand for … in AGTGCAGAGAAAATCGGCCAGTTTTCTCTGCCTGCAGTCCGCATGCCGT…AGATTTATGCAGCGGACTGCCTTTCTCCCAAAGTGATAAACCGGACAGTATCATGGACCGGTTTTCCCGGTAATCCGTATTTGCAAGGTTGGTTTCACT; site = the 11-nt target;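 also: IS621 recombinase and bridge RNA in Escherichia coli cells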
Classify as follows. Reported recombinant barcode read abundance (log10) greater than or equal to 0.2: criterion met. Reported recombinant barcode read abundance (log10) below: criterion not met.

Previously resolved entries follow.
- CACTTATCTTGGGTTCTAACCTGTTGCCT (site CACTTAGCTAG): criterion not met
- TCGTCACCTTGGGTTCTAACCTGTTGCCT (site TCGTCACCTAG): criterion met
- CGTGCGTCTTGGGTTCTAACCTGTTGCCT (site GGTGCGTCTAG): criterion met

Decide: is the reported value of recombinant barcode read abundance (log10) for CGACACTCTTGGGTTCTAACCTGTTGCCT (site CCACACTCTAG) equal to or greater than 0.2?
criterion not met

Decide: is the reported value of recombinant barcode read abundance (log10) for GGCCGGCCTTGGGTTCTAACCTGTTGCCT (site GGCCGGGCTAG) equal to or greater than 0.2?
criterion met

Decide: is the reported value of recombinant barcode read abundance (log10) for CGTGCGGCTTGGGTTCTAACCTGTTGCCT (site GGTGCGGCTAG) equal to or greater than 0.2?
criterion met

Decide: is the reported value of recombinant barcode read abundance (log10) for ACGCTAGCTTGGGTTCTAACCTGTTGCCT (site TCGCTAGCTAG) equal to or greater than 0.2?
criterion not met

Decide: is the reported value of recombinant barcode read abundance (log10) for ACCTAACCTTGGGTTCTAACCTGTTGCAT (site ATCTATCCTAT) equal to or greater than 0.2?
criterion met

Decide: is the reported value of recombinant barcode read abundance (log10) for GATCGCGCTTGGGTTCTAACCTGTTGCCT (site GATCGAGCTAG) equal to or greater than 0.2?
criterion not met

Decide: is the reported value of recombinant barcode read abundance (log10) for TACCCTACTTGGGTTCTAACCTGTTGCTA (site TACCCGCCTTA) equal to or greater than 0.2?
criterion not met
